- Tested on: EGFR L858R Ba/F3
- experiment.description: CellTiter-Glo cell viability, EGFR L858R Ba/F3
- Type: cell-based
- experimental.context: Mus musculus, BaF3, 72 h, read-out: EGFR L858R Ba/F3 CTG IC50 /
value.type: IC50

{"columns": ["molecule", "result"],
 "data": [
  ["C=CC(=O)Nc1cc(-c2c(-c3cnn(C)c3)[nH]c3ncc(-c4cnn(CCN(C)C)c4)cc23)ccc1C [Example 34]", "> 10000 nM"],
  ["C=CC(=O)Nc1cc(-c2c(-c3cnn(C)c3)[nH]c3ncc(C(=O)OC(C)C)cc23)ccc1C [Example 1, 2,2,2-trifluoroacetate]", "≤ 50 nM"]
]}

Next up:
For the molecule C=CC(=O)Nc1cc(-c2c(-c3cnn(CCO)c3)[nH]c3ncc(C(=O)OC(C)C)c(C)c23)ccc1C [Example 23] , report IC50. ≤ 50 nM
